B1: Hairpin Ribozyme (parent)
chain: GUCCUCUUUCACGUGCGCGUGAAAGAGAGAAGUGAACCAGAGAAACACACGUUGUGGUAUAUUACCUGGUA

# Variants of: B1
# protocol-details: self-cleavage, relative activity (ratio to wild type); higher = more cleavage; co-transcriptional
Catalogue of variants with associated self-cleavage
Answer with the value's number alone.

Example entries and their recorded answers appear below.
>  <variant-annotation>
U9G C50G

>  <self-cleavage>
0.208

$$$$
>  <variant-annotation>
U14C A36C

>  <self-cleavage>
0.476

$$$$

Data request: Which self-cleavage is reported for this variant? A11G A64U
Data returned: 0.111

Data request: Which self-cleavage is reported for this variant? U55C G56C
Data returned: 0.114

Data request: Which self-cleavage is reported for this variant? U5A A36G
Data returned: 0.427

Data request: Which self-cleavage is reported for this variant? U53G C65A
Data returned: 0.641

Data request: Which self-cleavage is reported for this variant? C4A U14C
Data returned: 0.115

Data request: Which self-cleavage is reported for this variant? G34U G56C
Data returned: 0.409
